System: PRKG1
SETUP CONDITIONS: concentration: 1 μM, replicates: in singlicate; n = 1
METRIC NAME: %Inh (%)
Give a bare numeral; the unit % is implied.

[Q] Need %Inh of COc1cc2ncn(-c3cc(OCc4sccc4Cl)c(C(N)=O)s3)c2cc1OC , thanks.
[A] 14

[Q] Need %Inh of Cn1ccc2ncnc(Oc3ccc(NC(=O)Nc4ccncc4)c(Cl)c3)c21 , thanks.
[A] 3

[Q] Need %Inh of Fc1ccc(-c2nn3c(OCC(F)(F)F)cccc3c2-c2ccncc2)cc1 , thanks.
[A] 14

[Q] Need %Inh of CCc1ccnc(/C=C/c2n[nH]c3cc(Sc4ccccc4C(=O)NC)ccc23)c1 , thanks.
[A] 0

[Q] Need %Inh of CN1c2ccc(CNc3ccc(F)cc3)cc2-c2c(cnn2C)S1(=O)=O , thanks.
[A] 0

###

For each entry below, report its %Inh value.
Tested on: TGFBR2
SETUP CONDITIONS: concentration: 1 μM, replicates: in singlicate; n = 1
Give a bare numeral; the unit % is implied.

[Q] Need %Inh of O=C(NOCC1CC1)c1ccc(F)c(F)c1Nc1ccc(I)cc1Cl , thanks.
[A] 0

[Q] Need %Inh of CN(C1=C(c2ccccc2)C(=O)NC1=O)c1ccccc1 , thanks.
[A] 0

[Q] Need %Inh of NCCNS(=O)(=O)c1ccc(-c2ccnc3[nH]ccc23)cc1 , thanks.
[A] 0

[Q] Need %Inh of CCc1nc(-c2cccc(C)c2)c(-c2ccnc(NCc3ccccc3)c2)s1 , thanks.
[A] 0

[Q] Need %Inh of O=C(NCCNc1ccnc(Nc2ccc(F)cc2)n1)c1cc2ccccc2s1 , thanks.
[A] 0

[Q] Need %Inh of Cc1nnc(-c2ccc3ncc(-c4ccc(S(C)=O)cc4)n3c2)o1 (stereo not drawn) , thanks.
[A] 0

[Q] Need %Inh of O=C(c1ccc(-c2cc(-c3c[nH]nc3-c3ccccn3)ccn2)cc1)N1CCOCC1 , thanks.
[A] 11

[Q] Need %Inh of Nc1nc(-c2ccc3c(N)n[nH]c3c2)cc(N2CCCC2)n1 , thanks.
[A] 0

[Q] Need %Inh of O=c1cc(N2CCOCC2)nc2n(Cc3cccc4ccccc34)ccn12 , thanks.
[A] 1

###

Test system: SYK
SETUP CONDITIONS: concentration: 1 μM, replicates: in singlicate; n = 1
Use TRUE when the recorded %Inh is no lower than 3%; use FALSE when it is lower.

[Q] Hi, just wondering whether COCCNC(=O)c1ccc(-c2cc(C(=O)NC3CC3)cc(F)c2C)cc1 [GW868318] shows %Inh of 3% or higher.
[A] FALSE

[Q] Hi, just wondering whether O=C(Nc1cccc(-c2nn3ncccc3c2-c2ccnc(Nc3cccc(C(F)(F)F)c3)n2)c1)c1c(F)cccc1F [GSK299495] shows %Inh of 3% or higher.
[A] TRUE

[Q] Hi, just wondering whether Cc1cccc(-c2nc(Nc3ccc4ncsc4c3)c3ccccc3n2)n1 [GW867588] shows %Inh of 3% or higher.
[A] TRUE

[Q] Hi, just wondering whether Cc1ccc(C(=O)NCC(N)=O)cc1-n1c(C)cc(OCc2ccc(F)cc2F)c(Br)c1=O shows %Inh of 3% or higher.
[A] TRUE

[Q] Hi, just wondering whether Fc1ccc(-c2ncn(CCCN3CCOCC3)c2-c2cccnc2)cc1 [SB-211743] shows %Inh of 3% or higher.
[A] TRUE

[Q] Hi, just wondering whether CN1c2ccc(CNc3ccc(F)cc3)cc2-c2c(cnn2C)S1(=O)=O shows %Inh of 3% or higher.
[A] TRUE

[Q] Hi, just wondering whether Cl.Nc1ncnc2occ(-c3ccc(NC(=O)Nc4cc(C(F)(F)F)ccc4F)cc3)c12 [SB-707548] shows %Inh of 3% or higher.
[A] TRUE

[Q] Hi, just wondering whether Cc1ccc(NC(=O)c2ccnc(N3CCN(C)CC3)c2)cc1-c1ccc(C(=O)NCC2CC2)cc1 [GW775604] shows %Inh of 3% or higher.
[A] TRUE

[Q] Hi, just wondering whether O=C(NCCNc1ccnc(Nc2ccc(F)cc2)n1)Nc1ccccc1F [GSK1379880] shows %Inh of 3% or higher.
[A] TRUE

[Q] Hi, just wondering whether CC(C)Oc1ccc2c(-c3ccnc(Nc4ccc(N5CCN(C)CC5)cc4)n3)cnn2n1 [GW696155] shows %Inh of 3% or higher.
[A] TRUE

[Q] Hi, just wondering whether COc1cc2c(cc1OCCN1CCN(C)CC1)ncc1c3ccc(C#N)cc3[nH]c21 shows %Inh of 3% or higher.
[A] TRUE

[Q] Hi, just wondering whether COc1ccc(S(=O)(=O)NC2CCN(c3cc(C)nc(Nc4cccc(C#N)c4)n3)CC2)cc1.O=C(O)C(F)(F)F [GSK1653539] shows %Inh of 3% or higher.
[A] FALSE

[Q] Hi, just wondering whether NCC(NC(=O)c1cc(-c2cn[nH]c2)c(-c2ccnc3[nH]ccc23)s1)c1ccccc1.O=C(O)C(F)(F)F.O=C(O)C(F)(F)F (stereo not shown) [GSK1325775] shows %Inh of 3% or higher.
[A] FALSE

[Q] Hi, just wondering whether Nc1nc(-c2ccc3c(N)n[nH]c3c2)cc(N2CCCC2)n1 [GSK2227430] shows %Inh of 3% or higher.
[A] FALSE

[Q] Hi, just wondering whether CSc1ccc(-c2cc3ncnc(SCC(=O)O)c3s2)cc1 shows %Inh of 3% or higher.
[A] TRUE

###

METRIC NAME: pKd
pKd here: minus log base 10 of the concentration, concentration in moles per litre.

[Q] GET /values?readout=pKd&system=PLK3&item= COc1ccc(COc2cc(-n3cnc4ccccc43)sc2C(N)=O)cc1 [GSK1024304];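 also: kd values determined as follow-up on hits from a single-replicate KINOMEscan panel screen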
[A] 6.42

###

System: CDKL1
SETUP CONDITIONS: concentration: 1 μM, replicates: in singlicate; n = 1
METRIC NAME: %Inh (%)
Give a bare numeral; the unit % is implied.

[Q] Need %Inh of CC(C)Oc1ccc2c(-c3ccnc(Nc4ccc(N5CCN(C)CC5)cc4)n3)cnn2n1 , thanks.
[A] 34

[Q] Need %Inh of Fc1ccc(-c2ncn(CCCN3CCOCC3)c2-c2cccnc2)cc1 , thanks.
[A] 28

[Q] Need %Inh of NS(=O)(=O)c1cccc(-c2ccc3nccc(-c4cccc(S(N)(=O)=O)c4)c3c2)c1 , thanks.
[A] 27

[Q] Need %Inh of O=C(NOCC1CC1)c1ccc(F)c(F)c1Nc1ccc(I)cc1Cl , thanks.
[A] 0

[Q] Need %Inh of Cn1ccc2ncnc(Oc3ccc(NC(=O)Nc4ccncc4)c(Cl)c3)c21 , thanks.
[A] 0

[Q] Need %Inh of COc1cc(Nc2nccc(N3CCC(NC(=O)c4cccc(NC(C)=O)c4)C3)n2)cc(OC)c1OC (stereo not drawn) , thanks.
[A] 0

[Q] Need %Inh of N#Cc1c(N2CCOCC2)sc(-c2ccn[nH]2)c1-c1ccc(Cl)cc1 , thanks.
[A] 0

[Q] Need %Inh of Cc1ccc(C(=O)NCC(N)=O)cc1-n1c(C)cc(OCc2ccc(F)cc2F)c(Br)c1=O , thanks.
[A] 44

[Q] Need %Inh of Fc1ccc(-c2nn3c(OCC(F)(F)F)cccc3c2-c2ccncc2)cc1 , thanks.
[A] 8

###

System: KIT-autoinhibited
SETUP CONDITIONS: concentration: 1 μM, replicates: in singlicate; n = 1
For each entry below, report its %Inh value.
Give a bare numeral; the unit % is implied.

[Q] Need %Inh of CC(=O)Nc1ccc(COc2ccc(Nc3ccnc4cc(-c5ccccn5)ccc34)cc2)cc1.Cl , thanks.
[A] 72

[Q] Need %Inh of COC(=O)Nc1nc2cc(Oc3ccc(NC(=O)Nc4cc(F)ccc4F)cc3)ccc2[nH]1.Cl , thanks.
[A] 30

[Q] Need %Inh of COc1ccc(Nc2nccc(N3CCC(NC(=O)Nc4cc(C)ccc4C)C3)n2)cc1 (stereo not drawn) , thanks.
[A] 0

[Q] Need %Inh of Fc1ccc(-c2ncn(CCCN3CCOCC3)c2-c2ccccn2)cc1 , thanks.
[A] 0

[Q] Need %Inh of COc1ccc(CNC(=O)NC2CCN(c3ccnc(Nc4ccc(OC)cc4)n3)C2)cc1 (stereo not drawn) , thanks.
[A] 0

[Q] Need %Inh of CN(C1=C(c2ccccc2)C(=O)NC1=O)c1ccccc1 , thanks.
[A] 0

[Q] Need %Inh of Cc1nnc(-c2ccc3ncc(-c4ccc(S(C)=O)cc4)n3c2)o1 (stereo not drawn) , thanks.
[A] 7

[Q] Need %Inh of O=C1NC(=O)C(N2CCc3ccccc32)=C1c1cccc(Cl)c1 , thanks.
[A] 0

[Q] Need %Inh of O=c1cc(N2CCOCC2)nc2n(Cc3cccc4ccccc34)ccn12 , thanks.
[A] 0

###

For each entry below, report its %Inh value.
Tested on: MAP4K3
SETUP CONDITIONS: concentration: 1 μM, replicates: in singlicate; n = 1
Give a bare numeral; the unit % is implied.

[Q] Need %Inh of COCCNC(=O)c1ccc(-c2cc(C(=O)NC3CC3)cc(F)c2C)cc1 , thanks.
[A] 14

[Q] Need %Inh of COc1ccc(COc2cc(-n3cnc4ccccc43)sc2C(N)=O)cc1 , thanks.
[A] 0

[Q] Need %Inh of CC(C)(CN)c1nc(-c2ccc(Cl)c(O)c2)c(-c2ccncc2)[nH]1.O=C(O)C(F)(F)F , thanks.
[A] 0

[Q] Need %Inh of Fc1ccc(-c2nn3c(OCC(F)(F)F)cccc3c2-c2ccncc2)cc1 , thanks.
[A] 0

[Q] Need %Inh of COc1cc2c(cc1OC[C@@H](O)CO)ncc1c3ccc(C#N)cc3[nH]c21 , thanks.
[A] 20

[Q] Need %Inh of NS(=O)(=O)c1cccc(-c2ccc3nccc(-c4cccc(S(N)(=O)=O)c4)c3c2)c1 , thanks.
[A] 0

[Q] Need %Inh of COc1cc(Nc2nccc(N3CCC(NC(=O)c4cccc(NC(C)=O)c4)C3)n2)cc(OC)c1OC (stereo not shown) , thanks.
[A] 2

[Q] Need %Inh of COc1ccc(CNC(=O)NC2CCN(c3ccnc(Nc4ccc(OC)cc4)n3)C2)cc1 (stereo not shown) , thanks.
[A] 0

[Q] Need %Inh of O=C1NC(=O)C(N2CCc3ccccc32)=C1c1cccc(Cl)c1 , thanks.
[A] 20

[Q] Need %Inh of Nc1nccc(-c2c(-c3ccc(F)cc3)ncn2C2CCN(CC(F)(F)F)CC2)n1 , thanks.
[A] 0

[Q] Need %Inh of COc1cc2ncn(-c3cc(OCc4sccc4Cl)c(C(N)=O)s3)c2cc1OC , thanks.
[A] 50

[Q] Need %Inh of COC(=O)Nc1nc2cc(Oc3ccc(NC(=O)Nc4cc(F)ccc4F)cc3)ccc2[nH]1.Cl , thanks.
[A] 0

[Q] Need %Inh of CNc1ncnc2[nH]ncc12 , thanks.
[A] 0

Source: paper PMC5540273
